Observed IC50 for c-Kit kinase (Homo sapiens), reported per entry below.

So what does the record say about IC50 for COc1cncc(Nc2ccc(C(=O)c3c[nH]c4ncnc(NC5CC5)c34)c(F)n2)c1 ?
< 100 nM

Any idea what IC50 was measured for Fc1ccc(Nc2ncc(Cc3c[nH]c4ncc(Cl)cc34)cn2)cc1 ?
< 10 nM

Name the recorded IC50 for CCC(CC)Nc1ncnc2[nH]cc(C(=O)c3ccc(Nc4ccc(OC)nc4)nc3F)c12 .
< 1000 nM

For Cc1cncc(Nc2ccc(C(=O)c3c[nH]c4ncnc(C5CC5)c34)c(F)n2)c1 , what is its reported IC50?
< 1000 nM

Please report the recorded IC50 for O=C(c1cnc(NC2CCC(F)(F)CC2)c(F)c1)c1c[nH]c2ncnc(NC3CC3)c12 .
< 1000 nM

Consider the compound CNc1ncnc2[nH]cc(C(=O)c3ccc(Nc4ccc(OC)nc4)nc3OC)c12 and give its measured IC50.
< 1000 nM

Give its IC50 value. Item: CNc1ncnc2[nH]cc(C(=O)c3ccc(NC4CCCCC4)nc3F)c12
< 1000 nM

If you can, please state the reported IC50 value of CCOc1ccc(Nc2ncc(Cc3c[nH]c4ncc(C)cc34)cn2)cn1 .
< 10 nM

I'd like to know its IC50. The compound in question is COCCCNc1ncnc2[nH]cc(C(=O)c3ccc(Nc4ccc(OC)nc4)nc3F)c12
< 100 nM

# input compound: CNc1ncnc2[nH]cc(C(=O)c3ccc(Nc4cncc(OC)c4)nc3F)c12 ; wanted: its IC50
< 1000 nM

What value of IC50 has been recorded for this entry: Fc1cc(Cc2c[nH]c3ncnc(NC4CC4)c23)cnc1NC1CCC(F)(F)CC1
< 1000 nM

Reported IC50 for Clc1cnc2[nH]cc(Cc3cnc(NC4CCCCCC4)nc3)c2c1 : what is it?
< 1000 nM

* * *

pIC50: −log10 of the molar value.
Assign pIC50 to each entry below.

API: value(readout= pIC50, system= CYP2C9 (Homo sapiens, UniProt P11712), query= COc1ccc(Nc2ccc(Cc3c[nH]c4ncnc(C)c34)c(F)n2)cn1 )
< 5.00

Checklist item: pIC50 tested on CYP2C9 (Homo sapiens, UniProt P11712), entry COc1ccc(Nc2ccc(C(=O)c3c[nH]c4ncc(C)cc34)c(F)n2)cn1 , value?
< 5.00

For CYP2C9 (Homo sapiens, UniProt P11712), provide pIC50 of O=C(c1ccc(Nc2ccc(C3CC3)nc2)nc1F)c1c[nH]c2ncnc(NC3CC3)c12 please.
< 5.00

Given the entry CCCNc1ncnc2[nH]cc(C(=O)c3ccc(Nc4ccc(C)nc4)nc3F)c12 , what pIC50 was observed with CYP2C9 (Homo sapiens, UniProt P11712)?
< 5.00

For the record CNc1ncnc2[nH]cc(C(=O)c3ccc(NC4CCCCC4)nc3F)c12 , what value of pIC50 is listed for CYP2C9 (Homo sapiens, UniProt P11712)?
> 5.30

* * *

The following are reported IC50 results, target or system Fms kinase (Homo sapiens, UniProt P07333).

Suppose we examine the molecule CCn1cc(Nc2ccc(Cc3c[nH]c4ncnc(OCCOC)c34)c(F)n2)cn1 [Compound P-4014] ; what IC50 value has been reported?
< 10 nM

So what does the record say about IC50 for CC1CCC(Nc2ncc(Cc3c[nH]c4ncc(Cl)cc34)cn2)CC1 (stereo not shown) [Compound P-3009] ?
< 100 nM

Tell me the measured IC50 of Cc1cnc2[nH]cc(Cc3cnc(Nc4cc(C(C)(C)C)n[nH]4)nc3)c2c1 [Compound P-3029] , please.
< 100 nM

Tell me the measured IC50 of COc1cncc(Nc2ccc(C(=O)c3c[nH]c4ncnc(NC5CCCCC5)c34)c(F)n2)c1 [Compound P-4104] , please.
< 1000 nM

So what does the record say about IC50 for CCc1ccc(Nc2ccc(C(=O)c3c[nH]c4ncnc(NCC(C)(C)O)c34)c(F)n2)cn1 [Compound P-4064] ?
< 10 nM

Any idea what IC50 was measured for Fc1nc(Nc2ccc(C3CC3)nc2)ccc1Cc1c[nH]c2ncnc(NCC(F)(F)F)c12 [Compound P-4130] ?
< 10 nM

Which IC50 is reported for this molecule? COc1ccc(Nc2ccc(Cc3c[nH]c4ncnc(C5CC5)c34)c(F)n2)cn1 [Compound P-4023]
< 10 nM

What value of measured IC50 is listed for CCc1ccc(Nc2ccc(C(=O)c3c[nH]c4ncnc(NC5CCCC5)c34)c(F)n2)cn1 [Compound P-4099] ?
< 100 nM

What value of IC50 has been recorded for this entry: Fc1ccccc1Nc1ncc(Cc2c[nH]c3ncc(Cl)cc23)cn1 [Compound P-3014]
< 10 nM

Given the molecule CCNc1ncnc2[nH]cc(C(=O)c3ccc(NC4CCC(F)(F)CC4)nc3Cl)c12 [Compound P-4050] , what is its reported IC50?
< 1000 nM

For the molecule CCC(C)Nc1ncnc2[nH]cc(C(=O)c3ccc(Nc4ccc(OC)nc4)nc3F)c12 (stereo not shown) [Compound P-4078] , what IC50 is on record?
< 10 nM

Using the record for CCOc1ccc(Nc2ccc(C(=O)c3c[nH]c4ncnc(OC)c34)c(F)n2)cn1 [Compound P-4024] , report its IC50.
< 1000 nM

Record request: IC50 value, item COc1ccc(Nc2ccc(C(=O)c3c[nH]c4ncc(C)cc34)c(F)n2)cn1 [Compound P-3040]
< 100 nM

What does the data say about its IC50? Entry: Clc1cnc2[nH]cc(Cc3cnc(Nc4ccccc4Cl)nc3)c2c1 [Compound P-3015]
< 10 nM

// lookup IC50 for CCc1ccc(Nc2ccc(Cc3c[nH]c4ncc(C)cc34)c(F)n2)cn1 [Compound P-3048]
< 10 nM

Look up IC50 for this molecule: O=C(c1ccc(Nc2ccc(C3CC3)nc2)nc1F)c1c[nH]c2ncccc12 [Compound P-3052]
< 100 nM

Looking for the measured IC50 of O=C(c1ccc(Nc2ccc(C(F)(F)F)nc2)nc1F)c1c[nH]c2ncnc(NC3CC3)c12 [Compound P-4091] , can you help?
< 100 nM

If you can, please state the reported IC50 value of CNc1ncnc2[nH]cc(C(=O)c3ccc(NC4CCCCC4)nc3F)c12 [Compound P-4102] .
< 100 nM

Fill in: IC50 of COc1ccc(Nc2ccc(C(=O)c3c[nH]c4ncnc(NCC5CCCO5)c34)c(F)n2)cn1 (stereo not shown) [Compound P-4073] is ___
< 100 nM
